# System: Pseudomonas aeruginosa
# ASSAY INFO: Aerobic antibacterial MIC, standard dilution technique
# Format: cell-based
# CONDITION SUMMARY: clinical isolate, read-out: Minimum inhibitory concentration (MIC) Pseudomonas aeruginosa
PROPERTY: MIC (µg/mL)
I only need the number, in µg/mL, no unit after it.

Worked cases, answers included:
| MOLECULE SMILES | MIC / µg/mL |
| --- | --- |
| CC(C)C[C@H](NC(=O)c1cnccn1)C(=O)O | 0.03 |
| O=C(N[C@@H](Cc1c[nH]c2ccccc12)C(=O)O)c1cnccn1 | 0.12 |
| NNC(=O)c1ccncc1 | 64 |

Exercise: Look up MIC with Pseudomonas aeruginosa for this compound: `CC(C)C[C@H](NC(=O)c1cnccn1)C(=O)NNC(=O)c1ccncc1`
Solution: 64

Exercise: Give the reported MIC for `O=C(NNC(=O)c1ccncc1)c1ccncc1` (system: Pseudomonas aeruginosa).
Solution: 0.06

Exercise: Lab note: need MIC for `NC(=O)c1cnccn1` on Pseudomonas aeruginosa, anyone have it?
Solution: 4

Exercise: Pseudomonas aeruginosa / MIC / `CC(C)[C@H](NC(=O)c1cnccn1)C(=O)O` : value?
Solution: 4

Exercise: Please state recorded MIC (tested on Pseudomonas aeruginosa) of `O=C(N[C@@H](Cc1ccccc1)C(=O)O)c1cnccn1`
Solution: 0.12
